Target entity: Cytochrome P450 3A5 (Homo sapiens)
Sequence (P20815 whole entry): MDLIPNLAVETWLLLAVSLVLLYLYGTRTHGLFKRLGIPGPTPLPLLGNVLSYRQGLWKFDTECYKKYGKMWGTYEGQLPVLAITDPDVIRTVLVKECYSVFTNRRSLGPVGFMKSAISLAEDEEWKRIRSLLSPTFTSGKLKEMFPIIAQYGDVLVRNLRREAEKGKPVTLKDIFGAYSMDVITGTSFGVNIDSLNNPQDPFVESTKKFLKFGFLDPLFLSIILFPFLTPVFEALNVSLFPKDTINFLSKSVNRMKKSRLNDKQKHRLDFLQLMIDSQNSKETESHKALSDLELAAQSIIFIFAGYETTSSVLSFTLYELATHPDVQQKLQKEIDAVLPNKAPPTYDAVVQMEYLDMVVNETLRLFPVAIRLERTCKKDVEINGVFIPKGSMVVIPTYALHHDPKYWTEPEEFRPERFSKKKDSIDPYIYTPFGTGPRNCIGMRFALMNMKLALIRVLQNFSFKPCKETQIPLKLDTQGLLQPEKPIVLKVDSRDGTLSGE
Result type: IC50

{"Structure as smiles": "COc1cc2ncnc(Nc3cccc(Cl)c3F)c2cc1OC(=O)N1CCN(C)C[C@H]1C", "Measured": "> 50 µM"}

----------
Procedure details: Clearance in Han Wistar rat at 1 mg/kg, iv
Format: ADME, organism-based
Details: in vivo
Result type: clearance (mL/min/kg)

{"Compound": "COc1cc2ncnc(Nc3cccc(Cl)c3F)c2cc1OC(=O)N1CCN(C)C[C@H]1C [AZD-3759]", "Result type": "clearance", "Measured": 17}
{"Compound": "COc1cc2ncnc(Nc3cccc(Cl)c3F)c2cc1OC(=O)N1CCN(C)CC1", "Result type": "clearance", "Measured": 22}
{"Compound": "COc1cc2ncnc(Nc3cccc(Cl)c3F)c2cc1OC(=O)N1CCN(C)[C@@H](C)C1", "Result type": "clearance", "Measured": 26}
{"Compound": "COc1cc2ncnc(Nc3cccc(Cl)c3F)c2cc1OC(=O)N1CCN(C)C[C@@H]1C", "Result type": "clearance", "Measured": 29}
{"Compound": "COc1cc2ncnc(Nc3cccc(Cl)c3F)c2cc1OC(=O)N1CCN(C)[C@H](C)C1", "Result type": "clearance", "Measured": 55}
{"Compound": "COc1cc2ncnc(Nc3cccc(Cl)c3F)c2cc1OC(=O)N1CCN(C)C2CC21 (stereo in doubt; 1i)", "Result type": "clearance", "Measured": 28}

----------
Procedure details: AUC(0 to 24 hrs) in Han Wistar rat at 1 mg/kg, iv
Type: ADME, organism-based
Design: time < 24 hr, dose 1 mg/kg, route intravenous
Details: in vivo
Result type: AUC(0-t) at 24 h (µM·h)

{"Structure as smiles": "COc1cc2ncnc(Nc3cccc(Cl)c3F)c2cc1OC(=O)N1CCN(C)CC1", "Result type": "AUC(0-t) at 24 h", "Measured": 1.71}

----------
Target entity: UniProt:P10635
Sequence (P10635 whole entry): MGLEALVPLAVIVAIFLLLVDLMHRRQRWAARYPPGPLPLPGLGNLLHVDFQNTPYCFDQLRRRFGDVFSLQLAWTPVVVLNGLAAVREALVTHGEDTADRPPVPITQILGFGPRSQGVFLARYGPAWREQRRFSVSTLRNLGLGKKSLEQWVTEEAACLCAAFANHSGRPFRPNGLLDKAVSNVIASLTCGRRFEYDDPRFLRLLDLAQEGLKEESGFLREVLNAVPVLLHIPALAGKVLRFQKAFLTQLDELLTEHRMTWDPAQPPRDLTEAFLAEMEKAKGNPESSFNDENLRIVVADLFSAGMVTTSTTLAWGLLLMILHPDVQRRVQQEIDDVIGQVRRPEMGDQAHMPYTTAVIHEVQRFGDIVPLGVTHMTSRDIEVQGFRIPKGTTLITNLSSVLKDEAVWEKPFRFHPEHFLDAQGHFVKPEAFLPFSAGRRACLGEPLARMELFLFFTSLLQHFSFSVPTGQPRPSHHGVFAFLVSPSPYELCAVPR
Procedure details: Inhibition of human CYP2D6
Type: ADME

{"Structure as smiles": "COc1cc2ncnc(Nc3cccc(Cl)c3F)c2cc1CN1CCOCC1", "IC50": "> 10 µM"}

----------
Procedure details: AUC(0 to 24 hrs) in beagle dog at 1 mg/kg, iv
Assay type: ADME, organism-based, Canis lupus familiaris
Parameters: dose 1 mg/kg, time < 24 hr, route intravenous
Details: in vivo
Result type: AUC(0-t) at 24 h (µM·h)

{"Structure as smiles": "COc1cc2ncnc(Nc3cccc(Cl)c3F)c2cc1OC(=O)N1CCN(C)C[C@H]1C", "Measured": 2.56}

----------
Property: AUC(0-t) at 7 h; scope: individual molecules
Procedure details: AUC (0 to 7 hrs) in Han Wistar rat brain at 2 mg/kg, po by LC-MS/MS analysis
Format: ADME, organism-based
Design: dose 2 mg/kg, time < 7 hr, route oral
Details: Han Wistar, brain

{"Structure as smiles": "COc1cc2ncnc(Nc3cccc(Cl)c3F)c2cc1OC(=O)N1CC[C@@H](N(C)C)C1", "AUC(0-t) at 7 h, µM·h": 2.04}
{"Structure as smiles": "COc1cc2ncnc(Nc3cccc(Cl)c3F)c2cc1OC(=O)N1CCOCC1", "AUC(0-t) at 7 h, µM·h": 0.104}
{"Structure as smiles": "COc1cc2ncnc(Nc3cccc(Cl)c3F)c2cc1OC(=O)N1CCN(C)[C@H](C)C1", "AUC(0-t) at 7 h, µM·h": 0.417}
{"Structure as smiles": "COc1cc2ncnc(Nc3cccc(Cl)c3F)c2cc1OC(=O)N1CCN(C)[C@@H](C)C1", "AUC(0-t) at 7 h, µM·h": 0.278}
{"Structure as smiles": "COc1cc2ncnc(Nc3cccc(Cl)c3F)c2cc1OC(=O)N1CCN(C)CC1", "AUC(0-t) at 7 h, µM·h": 0.825}
